value-kind: melting point

Below: 3 compounds and their reported melting point.
INSERT INTO assay_data (compound, reported) VALUES
  ('CCS(=O)(=O)c1cc(C(F)(F)F)cnc1-n1ncc(-c2ccc(C(F)(F)F)cc2)c1C [Compound P1.5]', '152 to 154 °C'),
  ('CCSc1cc(C(F)(F)F)cnc1-n1ncc(-c2ccc(C(F)(F)F)cc2)c1C [Compound P1.4]', '113 to 114 °C'),
  ('CCSc1cccnc1-n1cc(-c2ccc(C(F)(F)F)nc2)cn1 [Compound P1.19]', '121 to 123 °C');

--- query ---
Q: Given the compound CCS(=O)(=O)c1cc(C(F)(F)F)cnc1-n1cc(-c2ccc(SC(F)(F)F)cc2)cn1 [Compound P1.11] , what is its reported melting point?
Ans: 181 to 182 °C

====

Tested on: Plutella xylostella (diamond back moth)
Test: Activity against Plutella xylostella, artificial diet (Example B2)
Type: in vivo
Conditions: 120 h, L2 larvae on artificial diet, 5 days after infestation, read-out: effect in at least one of the two categories (mortality or growth inhibition)
Description: Example B2: Activity Against Plutella xylostella (Diamond Back Moth) 24-well microtiter plates with artificial diet were treated with aqueous test solutions prepared from 10′000 ppm DMSO stock solutions by pipetting. After drying, the plates were infested with L2 larvae (10 to 15 per well). The samples were assessed for mortality and growth inhibition in comparison to untreated samples 5 days after infestation. […]
# reported percent effect (mortality or growth inhibition) at 200 ppm; entries follow

Q: Given the molecule CCS(=O)(=O)c1cc(C(F)(F)F)cnc1-n1cc(-c2ccc(C(F)(F)F)cc2)cn1 [Compound P1.3] , what is its reported percent effect (mortality or growth inhibition) at 200 ppm?
Ans: ≥ 80%

Q: Given the molecule CCS(=O)(=O)c1cc(C(F)(F)F)ccc1-n1cc(-c2ccc(C(F)(F)F)nc2)cn1 [Compound P1.14] , what is its reported percent effect (mortality or growth inhibition) at 200 ppm?
Ans: ≥ 80%

Q: Given the molecule CCS(=O)(=O)c1cc(C(F)(F)F)cnc1-n1cc(-c2ccc(C(F)(F)F)nc2)cn1 [Compound P1.7] , what is its reported percent effect (mortality or growth inhibition) at 200 ppm?
Ans: ≥ 80%

Q: Given the molecule CCS(=O)(=O)c1cc(C(F)(F)F)cnc1-n1cc(-c2cncc(C(F)(F)F)c2)cn1 [Compound P1.18] , what is its reported percent effect (mortality or growth inhibition) at 200 ppm?
Ans: ≥ 80%

Q: Given the molecule CCS(=O)(=O)c1cc(C(F)(F)F)cnc1-n1cc(-c2cc(C(F)(F)F)ccn2)cn1 [Compound P1.8] , what is its reported percent effect (mortality or growth inhibition) at 200 ppm?
Ans: ≥ 80%

Q: Given the molecule CCS(=O)(=O)c1cc(C(F)(F)F)ccc1-n1ncc(-c2cccc(C(F)(F)F)c2)c1C [Compound P1.16] , what is its reported percent effect (mortality or growth inhibition) at 200 ppm?
Ans: ≥ 80%

Q: Given the molecule CCS(=O)(=O)c1cc(C(F)(F)F)ccc1-n1cc(-c2cncc(C(F)(F)F)c2)cn1 [Compound P1.17] , what is its reported percent effect (mortality or growth inhibition) at 200 ppm?
Ans: ≥ 80%

Q: Given the molecule CCS(=O)(=O)c1cc(C(F)(F)F)ccc1-n1cc(-c2cccc(C(F)(F)F)c2)cn1 [Compound P1.9] , what is its reported percent effect (mortality or growth inhibition) at 200 ppm?
Ans: ≥ 80%

Q: Given the molecule CCS(=O)(=O)c1cc(C(F)(F)F)ccc1-n1cc(-c2ccc(C(F)(F)F)cc2)cn1 [Compound P1.13] , what is its reported percent effect (mortality or growth inhibition) at 200 ppm?
Ans: ≥ 80%

Q: Given the molecule CCS(=O)(=O)c1cc(C(F)(F)F)ccc1-n1ncc(-c2ccc(C(F)(F)F)cc2)c1C [Compound P1.15] , what is its reported percent effect (mortality or growth inhibition) at 200 ppm?
Ans: ≥ 80%

Q: Given the molecule CCS(=O)(=O)c1cc(C(F)(F)F)cnc1-n1cc(-c2cccc(C(F)(F)F)c2)cn1 [Compound P1.6] , what is its reported percent effect (mortality or growth inhibition) at 200 ppm?
Ans: ≥ 80%
